- System: A375 cells (parental)
- protocolDescription: Kinase inhibitor library screening, PrestoBlue cell viability, 1 or 10 μM, 72 h
- conditionSet: A375 Parental, 10μΜ, 72 h; in %
Record form. Attribute: cell viability, A375 Parental, 10μΜ. Fill in for each entry.
Write no unit; give the number alone.

So for CCC[C@H](NC(=O)/C(C#N)=C/c1cccc(Br)n1)c1ccccc1 [WP1130, reference compound] , the logged cell viability, A375 Parental, 10μΜ turned out to be 0.545

So for CCc1cc(Nc2nccc(-c3c(-c4ccc(OC)c(C(=O)Nc5c(F)cccc5F)c4)nc4ccccn34)n2)c(OC)cc1N1CCC(N2CCN(S(C)(=O)=O)CC2)CC1 [GSK1904529A] , the logged cell viability, A375 Parental, 10μΜ turned out to be 94.0

So for CCOc1cc2ncc(C#N)c(Nc3ccc(OCc4ccccn4)c(Cl)c3)c2cc1NC(=O)/C=C/CN(C)C , the logged cell viability, A375 Parental, 10μΜ turned out to be 29.0

So for C[C@@H]1CCN(C(=O)CC#N)C[C@@H]1N(C)c1ncnc2[nH]ccc12 , the logged cell viability, A375 Parental, 10μΜ turned out to be 97.3

So for O=C(NOCC1CC1)c1ccc(F)c(F)c1Nc1ccc(I)cc1Cl , the logged cell viability, A375 Parental, 10μΜ turned out to be 21.5
